# Protocol notes: Enzymatic hydrolysis of thioester bond in serum
# Assay type: in vitro ADME
# Particulars: GSH derivative 0, 16 mM, mean ± SD on 6 tests
Please provide measured enzymatic hydrolysis specific activity of thioester bond, Serum for the entries that follow.

Using known records, supply enzymatic hydrolysis specific activity of thioester bond, Serum for CC(C)(C)C(=O)SC[C@H](NC(=O)CC[C@H](N)C(=O)O)C(=O)NCC(=O)O 0 -SH released nmoles/min/mg of

Dear colleague, please send me the reported enzymatic hydrolysis specific activity of thioester bond, Serum for CC(=O)SC[C@H](NC(=O)CC[C@H](N)C(=O)O)C(=O)NCC(=O)O when you can. 0 -SH released nmoles/min/mg of

----------
# Protocol notes: Enzymatic hydrolysis of thioester bond in cytosol
# Type: in vitro ADME
# Particulars: Cytosol; GSH derivative 0, 16 mM; mean ± SD on 6 tests
I'd be grateful if you could share measured enzymatic hydrolysis specific activity of thioester bond, Cytosol for these entries.

For the molecule N[C@@H](CCC(=O)N[C@@H](CSC(=O)Cc1ccccc1)C(=O)NCC(=O)O)C(=O)O , report enzymatic hydrolysis specific activity of thioester bond, Cytosol. 6,7 ± 0,9 -SH released nmoles/min/mg of

Indicate the recorded enzymatic hydrolysis specific activity of thioester bond, Cytosol value for this molecule: CCOC(=O)CNC(=O)[C@H](CSC(=O)c1ccccc1)NC(=O)CC[C@H](N)C(=O)OCC 1,45 ± 0,8 -SH released nmoles/min/mg of

Specify reported enzymatic hydrolysis specific activity of thioester bond, Cytosol for the molecule shown: N[C@@H](CCC(=O)N[C@@H](CSC(=O)c1ccccc1)C(=O)NCC(=O)O)C(=O)O 3,2 ± 1,1 -SH released nmoles/min/mg of

Please give measured enzymatic hydrolysis specific activity of thioester bond, Cytosol of the following entry: CCOC(=O)CNC(=O)[C@H](CSC(=O)c1ccccc1)NC(=O)CC[C@H](N)C(=O)O 0,6 ± 0,08 -SH released nmoles/min/mg of

Answer with the recorded enzymatic hydrolysis specific activity of thioester bond, Cytosol of CC(=O)SC[C@H](NC(=O)CC[C@H](N)C(=O)O)C(=O)NCC(=O)O only. 10,8 ± 1,5 -SH released nmoles/min/mg of

For the molecule CC(C)(C)C(=O)SC[C@H](NC(=O)CC[C@H](N)C(=O)O)C(=O)NCC(=O)O , give its measured enzymatic hydrolysis specific activity of thioester bond, Cytosol value. 6,9 ± 0,7 -SH released nmoles/min/mg of

----------
# Protocol notes: Enzymatic hydrolysis of thioester bond in cytosol
# Assay type: in vitro ADME
# Particulars: GSH derivative 0, 16 mM
Assign Ratio (intracellular to extracellular hydrolysis rate, Cytosol/Serum) to each entry below.

Recall and state the measured Ratio (intracellular to extracellular hydrolysis rate, Cytosol/Serum) for N[C@@H](CCC(=O)N[C@@H](CSC(=O)Cc1ccccc1)C(=O)NCC(=O)O)C(=O)O . 134,0

Name the recorded Ratio (intracellular to extracellular hydrolysis rate, Cytosol/Serum) of the item N[C@@H](CCC(=O)N[C@@H](CSC(=O)c1ccccc1)C(=O)NCC(=O)O)C(=O)O in your answer. 80,0

Quote Ratio (intracellular to extracellular hydrolysis rate, Cytosol/Serum) reported for CCOC(=O)CNC(=O)[C@H](CSC(=O)c1ccccc1)NC(=O)CC[C@H](N)C(=O)O please. 6,0

Report Ratio (intracellular to extracellular hydrolysis rate, Cytosol/Serum), nothing else, for this molecule: CCOC(=O)CNC(=O)[C@H](CSC(=O)c1ccccc1)NC(=O)CC[C@H](N)C(=O)OCC 18,5
